- Measurement Target: UniProt Q00955
- Sequence (Q00955 whole entry): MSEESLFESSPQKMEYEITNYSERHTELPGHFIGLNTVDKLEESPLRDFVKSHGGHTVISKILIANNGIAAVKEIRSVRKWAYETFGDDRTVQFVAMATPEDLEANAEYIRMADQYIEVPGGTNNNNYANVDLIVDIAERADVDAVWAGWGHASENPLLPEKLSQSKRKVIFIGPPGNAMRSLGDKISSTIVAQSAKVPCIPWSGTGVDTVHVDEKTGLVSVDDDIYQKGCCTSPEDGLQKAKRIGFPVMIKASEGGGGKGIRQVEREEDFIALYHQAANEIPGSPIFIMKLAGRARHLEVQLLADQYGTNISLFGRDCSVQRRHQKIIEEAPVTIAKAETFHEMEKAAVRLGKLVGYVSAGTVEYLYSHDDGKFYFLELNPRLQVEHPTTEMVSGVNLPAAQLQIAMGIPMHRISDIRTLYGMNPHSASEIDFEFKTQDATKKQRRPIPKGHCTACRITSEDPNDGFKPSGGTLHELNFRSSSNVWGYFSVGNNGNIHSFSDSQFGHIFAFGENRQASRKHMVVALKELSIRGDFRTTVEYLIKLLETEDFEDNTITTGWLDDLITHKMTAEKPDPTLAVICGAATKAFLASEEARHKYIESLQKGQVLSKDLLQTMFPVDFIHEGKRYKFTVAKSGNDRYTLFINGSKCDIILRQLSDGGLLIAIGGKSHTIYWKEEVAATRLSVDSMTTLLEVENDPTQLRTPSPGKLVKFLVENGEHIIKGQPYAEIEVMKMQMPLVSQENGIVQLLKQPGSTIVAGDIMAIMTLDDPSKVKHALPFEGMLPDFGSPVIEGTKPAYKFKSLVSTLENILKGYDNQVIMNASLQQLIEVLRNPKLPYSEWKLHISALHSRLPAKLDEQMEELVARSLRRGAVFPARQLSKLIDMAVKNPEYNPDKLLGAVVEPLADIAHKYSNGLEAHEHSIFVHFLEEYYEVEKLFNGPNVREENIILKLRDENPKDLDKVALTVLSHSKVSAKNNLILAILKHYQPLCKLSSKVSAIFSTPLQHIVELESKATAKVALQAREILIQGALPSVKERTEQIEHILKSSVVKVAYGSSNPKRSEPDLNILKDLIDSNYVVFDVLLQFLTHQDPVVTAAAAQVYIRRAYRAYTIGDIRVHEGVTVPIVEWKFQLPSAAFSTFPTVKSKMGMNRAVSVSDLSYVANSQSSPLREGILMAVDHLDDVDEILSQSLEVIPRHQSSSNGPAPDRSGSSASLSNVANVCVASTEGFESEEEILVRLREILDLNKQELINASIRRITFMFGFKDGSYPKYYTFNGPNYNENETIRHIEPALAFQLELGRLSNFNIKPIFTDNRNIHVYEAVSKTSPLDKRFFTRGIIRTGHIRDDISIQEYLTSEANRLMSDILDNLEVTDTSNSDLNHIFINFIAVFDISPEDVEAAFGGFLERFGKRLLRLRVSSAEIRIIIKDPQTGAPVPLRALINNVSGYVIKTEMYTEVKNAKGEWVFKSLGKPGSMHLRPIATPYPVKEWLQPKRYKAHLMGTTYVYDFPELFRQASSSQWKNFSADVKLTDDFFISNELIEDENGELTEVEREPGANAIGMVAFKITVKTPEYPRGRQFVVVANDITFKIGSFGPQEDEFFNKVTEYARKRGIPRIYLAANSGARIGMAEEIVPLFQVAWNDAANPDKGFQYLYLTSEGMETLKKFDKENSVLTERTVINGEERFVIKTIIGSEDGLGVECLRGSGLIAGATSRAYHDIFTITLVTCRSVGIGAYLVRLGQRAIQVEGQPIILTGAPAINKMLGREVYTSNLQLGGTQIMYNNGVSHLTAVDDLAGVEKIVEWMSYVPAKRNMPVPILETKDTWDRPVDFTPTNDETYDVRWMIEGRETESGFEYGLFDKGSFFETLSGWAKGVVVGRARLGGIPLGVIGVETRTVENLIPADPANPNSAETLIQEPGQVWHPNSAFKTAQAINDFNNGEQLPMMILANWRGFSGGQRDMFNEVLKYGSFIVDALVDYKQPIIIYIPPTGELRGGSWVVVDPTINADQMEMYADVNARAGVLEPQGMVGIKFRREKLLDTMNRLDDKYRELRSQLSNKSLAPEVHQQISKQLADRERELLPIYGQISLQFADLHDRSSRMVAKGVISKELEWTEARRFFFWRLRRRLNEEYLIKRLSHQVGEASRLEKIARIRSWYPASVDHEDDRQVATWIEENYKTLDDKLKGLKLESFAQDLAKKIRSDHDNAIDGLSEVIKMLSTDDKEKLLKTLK
- Condition: read-out: fACC2 (in vitro ACC2 Inhibition Assay, IC50); Table 2b, additional results; ADP-Glo, 5 nM ACC2, 20 μM ATP, 20 μM acetyl-CoA
Metric Name: IC50

Field: example entries. Status: answers known.
Entry Smiles | Assay Value
COc1ccc(F)cc1[C@H](Cn1c(=O)n(C(C)(C)C(=O)O)c(=O)c2c(C)c(-n3nccn3)sc21)OC[C@@H](C)C#N | 1 to 5 nM
COc1ccc(F)cc1[C@H](Cn1c(=O)n([C@@H](C)C(=O)N(C)C(C)C)c(=O)c2c(C)c(-n3nccn3)sc21)OCC(C)(C)O | 0.3 to 1 nM

Exam item: What value of measured IC50 is listed for `Cc1c(-n2nccn2)sc2c1c(=O)n(C(C)(C)C(=O)NC(C)C)c(=O)n2C[C@H](OC(C)C)c1cc(F)ccc1OCCO` ?
Marked response: 1 to 5 nM

----------
- Test system: Rhizoctonia solani (Rs)
- Protocol Text: Growth inhibition assay of fungal pathogens, Rs
- Format: cell-based
- Condition: 48 h, mycelial plugs, growth inhibition at 48 hours vs 2% DMSO control, read-out: Concentration at 90% Inhibition Rs
For each record, write down the corresponding IC90.
One number for each entry, in µg/mL.

Answered examples (3):
Entry Smiles | Endpoint Unit | Assay Value
CCNC(=O)[C@H](C)n1c(=O)c2c(C)c(-n3nccn3)sc2n(C[C@H](OCCC#N)c2cc(F)ccc2OC)c1=O | µg/mL | 2
COCCO[C@@H](Cn1c(=O)n(CC(=O)N2CCCC2)c(=O)c2c(C)c(-n3nccn3)sc21)c1cc(F)ccc1OC | µg/mL | 10
COc1ccc(F)cc1[C@H](Cn1c(=O)n([C@H](C)C(=O)N2CCCC2)c(=O)c2c(C)c(-n3nccn3)sc21)OCCC#N | µg/mL | 0.4

Exam item: Which IC90 value belongs to `COc1ccc(F)cc1[C@H](Cn1c(=O)n([C@H](C)C(=O)NC(C)C)c(=O)c2c(C)c(-n3nccn3)sc21)OCC(C)(C)C#N` ?
Marked response: 0.08

----------
- Measurement Target: human (hACC2) (Homo sapiens, UniProt O00763)
- Sequence (O00763 whole entry): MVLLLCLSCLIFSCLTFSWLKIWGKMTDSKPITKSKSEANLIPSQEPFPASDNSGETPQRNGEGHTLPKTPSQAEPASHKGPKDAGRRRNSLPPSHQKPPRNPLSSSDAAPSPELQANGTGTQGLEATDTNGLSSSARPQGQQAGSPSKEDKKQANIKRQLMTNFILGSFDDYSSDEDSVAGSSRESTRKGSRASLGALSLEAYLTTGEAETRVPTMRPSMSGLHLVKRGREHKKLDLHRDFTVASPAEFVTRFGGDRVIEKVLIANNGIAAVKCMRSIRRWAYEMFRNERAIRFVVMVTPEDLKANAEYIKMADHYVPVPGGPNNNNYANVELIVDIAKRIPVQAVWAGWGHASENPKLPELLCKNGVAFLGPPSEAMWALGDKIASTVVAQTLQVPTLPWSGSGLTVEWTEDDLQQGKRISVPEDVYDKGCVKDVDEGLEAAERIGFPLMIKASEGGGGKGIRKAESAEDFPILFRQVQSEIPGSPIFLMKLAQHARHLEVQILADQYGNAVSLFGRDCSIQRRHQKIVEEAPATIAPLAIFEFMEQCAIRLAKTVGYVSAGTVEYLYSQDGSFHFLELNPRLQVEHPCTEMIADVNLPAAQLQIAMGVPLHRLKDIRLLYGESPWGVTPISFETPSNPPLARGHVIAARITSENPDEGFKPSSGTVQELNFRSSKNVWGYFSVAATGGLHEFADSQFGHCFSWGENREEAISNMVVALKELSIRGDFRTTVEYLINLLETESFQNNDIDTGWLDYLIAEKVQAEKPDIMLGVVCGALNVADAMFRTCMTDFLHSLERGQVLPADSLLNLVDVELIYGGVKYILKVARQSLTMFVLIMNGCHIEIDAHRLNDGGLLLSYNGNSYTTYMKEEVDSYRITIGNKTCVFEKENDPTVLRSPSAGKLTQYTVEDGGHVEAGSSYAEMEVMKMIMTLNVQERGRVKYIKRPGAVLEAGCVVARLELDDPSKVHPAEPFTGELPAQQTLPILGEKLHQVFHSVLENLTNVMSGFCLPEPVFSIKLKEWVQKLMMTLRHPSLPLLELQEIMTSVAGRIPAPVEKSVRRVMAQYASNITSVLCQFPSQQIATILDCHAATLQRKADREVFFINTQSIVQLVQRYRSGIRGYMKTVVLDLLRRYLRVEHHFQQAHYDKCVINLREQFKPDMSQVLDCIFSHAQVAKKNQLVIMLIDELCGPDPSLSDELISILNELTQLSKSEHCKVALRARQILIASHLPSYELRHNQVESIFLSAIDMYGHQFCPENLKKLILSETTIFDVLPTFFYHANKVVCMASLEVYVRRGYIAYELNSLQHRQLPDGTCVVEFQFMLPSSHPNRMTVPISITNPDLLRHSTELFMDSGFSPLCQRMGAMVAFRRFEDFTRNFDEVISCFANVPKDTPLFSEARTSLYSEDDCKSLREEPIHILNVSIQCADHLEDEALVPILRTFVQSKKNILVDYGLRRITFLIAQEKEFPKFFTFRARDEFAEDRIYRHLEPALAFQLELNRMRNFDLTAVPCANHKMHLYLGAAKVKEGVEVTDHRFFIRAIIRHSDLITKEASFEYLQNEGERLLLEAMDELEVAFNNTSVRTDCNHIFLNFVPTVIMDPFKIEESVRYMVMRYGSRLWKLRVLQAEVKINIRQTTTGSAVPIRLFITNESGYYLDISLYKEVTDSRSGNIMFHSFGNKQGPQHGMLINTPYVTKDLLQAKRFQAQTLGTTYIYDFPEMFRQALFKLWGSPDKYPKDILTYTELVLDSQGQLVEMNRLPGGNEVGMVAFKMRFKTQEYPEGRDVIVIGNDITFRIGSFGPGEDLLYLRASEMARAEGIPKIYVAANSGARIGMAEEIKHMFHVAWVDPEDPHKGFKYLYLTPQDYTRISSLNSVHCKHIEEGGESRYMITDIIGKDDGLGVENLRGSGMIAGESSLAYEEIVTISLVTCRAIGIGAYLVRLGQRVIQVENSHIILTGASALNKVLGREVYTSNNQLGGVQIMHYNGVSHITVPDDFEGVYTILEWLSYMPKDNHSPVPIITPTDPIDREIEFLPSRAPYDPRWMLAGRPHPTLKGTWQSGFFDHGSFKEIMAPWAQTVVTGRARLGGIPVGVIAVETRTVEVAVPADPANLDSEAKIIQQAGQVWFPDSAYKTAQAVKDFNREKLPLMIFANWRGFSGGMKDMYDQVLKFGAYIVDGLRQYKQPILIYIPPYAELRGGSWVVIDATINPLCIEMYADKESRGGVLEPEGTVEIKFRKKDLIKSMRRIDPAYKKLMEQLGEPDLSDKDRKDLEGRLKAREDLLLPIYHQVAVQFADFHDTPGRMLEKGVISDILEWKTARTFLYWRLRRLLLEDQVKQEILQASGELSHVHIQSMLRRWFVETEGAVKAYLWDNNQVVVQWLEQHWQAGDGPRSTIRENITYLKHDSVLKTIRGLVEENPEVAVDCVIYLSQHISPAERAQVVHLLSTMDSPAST
- Protocol Text: In vitro ACC inhibition assay (ADP-Glo), hACC2
- Assay type: biochemical
- Condition: Table 2b, additional results, 5 nM ACC2, 20 μM ATP, 20 μM acetyl-CoA
Metric Name: IC50

Previously resolved entries follow.
Compound | Measurement Target | IC50
COc1ccc(F)cc1[C@H](Cn1c(=O)n([C@H](C)C(=O)N2CCCC2)c(=O)c2c(C)c(-n3nccn3)sc21)OCCC#N [Compound I-187] | human (hACC2) (Homo sapiens, UniProt O00763) | 1 to 5 nM
COc1ccc(F)cc1[C@H](Cn1c(=O)n(C(C)(C)C(=O)NC(C)C)c(=O)c2c(C)c(-n3nccn3)sc21)OCCO [Compound I-43] | human (hACC2) (Homo sapiens, UniProt O00763) | 5 to 10 nM
COc1ccc(F)cc1[C@H](Cn1c(=O)n([C@H](C)C(=O)NC(C)C)c(=O)c2c(C)c(-n3nccn3)sc21)OCC(C)(C)C#N [Compound I-210] | human (hACC2) (Homo sapiens, UniProt O00763) | 1 to 5 nM
COc1ccc(F)cc1[C@H](Cn1c(=O)n([C@@H](C)C(=O)N2CCCC2)c(=O)c2c(C)c(-n3nccn3)sc21)OC(C)C [Compound I-39] | human (hACC2) (Homo sapiens, UniProt O00763) | 1 to 5 nM
COc1ccc(F)cc1[C@H](Cn1c(=O)n(C(C)(C)C(=O)N2CC=CC2)c(=O)c2c(C)c(-n3nccn3)sc21)OC[C@H](C)O [Compound I-117] | human (hACC2) (Homo sapiens, UniProt O00763) | 5 to 10 nM

// for each compound in input: emit IC50
1. Cc1c(-n2nccn2)sc2c1c(=O)n(C(C)(C)C(=O)NC(C)C)c(=O)n2C[C@H](OCCC#N)c1cc(F)ccc1O [Compound I-246]
2. COc1ccc(F)cc1[C@@H](O)Cn1c(=O)n([C@@H](C)C(=O)N(C)C(C)C)c(=O)c2c(C)c(-n3nccn3)sc21 [Compound I-198]
3. COc1ccccc1[C@@H](O)Cn1c(=O)n([C@@H](C)C(=O)NC(C)C)c(=O)c2c(C)c(-n3nccn3)sc21 [Compound I-201]
4. COc1ccc(F)cc1[C@H](Cn1c(=O)n(C(C)(C)C(=O)NC(C)C)c(=O)c2c(C)c(-n3nccn3)sc21)O[C@H]1CC[C@@H](O)CC1 [Compound I-216]
5. COc1ccc(F)cc1[C@H](Cn1c(=O)n(C(C)(C)C(=O)NC(C)C)c(=O)c2c(C)c(-n3nccn3)sc21)O[C@H]1CC[C@H](C#N)CC1 [Compound I-159]
6. CCNC(=O)C(C)(C)n1c(=O)c2c(C)c(-n3nccn3)sc2n(C[C@H](O)c2cc(F)ccc2OC)c1=O [Compound I-255]
7. CCNC(=O)C(C)(C)n1c(=O)c2c(C)c(-n3nccn3)sc2n(C[C@H](OC(C)=O)c2cc(F)ccc2OC)c1=O [Compound I-257]
8. Cc1c(-n2nccn2)sc2c1c(=O)n(C(C)(C)C(=O)NC(C)C)c(=O)n2C[C@H](OC(C)C)c1cc(F)ccc1OCCO [Compound I-53]

Marked response:
1. 1 to 5 nM
2. 1 to 5 nM
3. 10 to 40 nM
4. 5 to 10 nM
5. 1 to 5 nM
6. 10 to 40 nM
7. > 40 nM
8. 10 to 40 nM

Take each entry in turn and give its IC50.
1. CC(=O)Oc1ccccc1[C@H](Cn1c(=O)n(C(C)(C)C(=O)NC(C)C)c(=O)c2c(C)c(-n3nccn3)sc21)OCCC#N [Compound I-272]
2. COc1ccc(C#N)cc1[C@H](Cn1c(=O)n(C(C)(C)C(=O)NC(C)C)c(=O)c2c(C)c(-n3nccn3)sc21)OCC(C)(C)C#N [Compound I-223]

Marked response:
1. 1 to 5 nM
2. 10 to 40 nM
